IC50 by entry:
Test system: A549
Test: Cytotoxicity against human A549 cells assessed as growth inhibition incubated for 72 hrs by MTT assay
Assay type: functional, cell-based
Settings: A549, 72 h
Give the quantity in µM, number only.

Hello, I am looking for reported IC50 with A549 for C=C1C(=O)O[C@H]2C[C@](C)(/C=C/C(=O)CC)C(=O)C[C@@H]12 . Could you help?
10.5

Hello, I am looking for reported IC50 with A549 for C=C(C)CC[C@H](OC(C)=O)[C@@]1(C)C[C@@H]2OC(=O)C(=C)[C@@H]2CC1=O . Could you help?
11

Hello, I am looking for reported IC50 with A549 for C=C1C(=O)O[C@H]2C[C@](C)(C(=O)CC(=O)CC)C(=O)C[C@@H]12 . Could you help?
21.9

Hello, I am looking for reported IC50 with A549 for C=C1C(=O)O[C@H]2C[C@@H](C)C(=O)C[C@@H]12 . Could you help?
14.9

Hello, I am looking for reported IC50 with A549 for C=C1C(=O)O[C@H]2C[C@@]3(C)C(=O)[C@@H]([C@@H]12)[C@](O)(CC)C[C@@H]3OCOC . Could you help?
17

Hello, I am looking for reported IC50 with A549 for C=C1C(=O)O[C@H]2C[C@]3(C)C(=O)C=C(CC)[C@@H](C3=O)[C@@H]12 . Could you help?
9.65

Hello, I am looking for reported IC50 with A549 for C=C(C)CC[C@H](O)[C@@]1(C)C[C@@H]2OC(=O)C(=C)[C@@H]2CC1=O . Could you help?
17.4

Hello, I am looking for reported IC50 with A549 for C=C1C(=O)O[C@H]2C[C@]3(C)C(=O)C=C(CC)OC3=C[C@@H]12 . Could you help?
9.58
